# Ctenocephalides felis: C. felis Mortality (%) 24 h values follow

| COMPOUND | C. felis Mortality (%) 24 h |
| --- | --- |
| CC(=NN(C)c1cc(Cl)cc(Cl)c1)c1cc(Cl)ccc1NS(=O)(=O)C(F)(F)F [Compound 99] | 100% |
| CC(=NN(C)c1ccccc1)c1cccc(NS(=O)(=O)C(F)(F)F)c1 [Compound 163] | 18% |
| CC(=NN(Cc1ccccc1)c1ccccc1)c1cc(Cl)ccc1NS(=O)(=O)C(F)(F)F [Compound 22] | 100% |
| CCN(N=C(C)c1cc(Cl)ccc1NS(=O)(=O)C(F)(F)F)c1ccc(F)cc1 [Compound 39] | 100% |
| CCOCN(c1ccc(Cl)cc1C(C)=NN(C)c1ccccc1)S(=O)(=O)C(F)(F)F [Compound 112] | 100% |
| CC(=NN(c1ccc(C(F)(F)F)cc1)C(C)C)c1cc(Cl)ccc1NS(=O)(=O)C(F)(F)F [Compound 47] | 100% |
| CC(=Nn1cnc2ccccc2c1=O)c1cc(Cl)ccc1NS(=O)(=O)C(F)(F)F [Compound 186] | 12% |
| CC(=NN1CCOCC1)c1cc(Cl)ccc1NS(=O)(=O)C(F)(F)F [Compound 20] | 100% |

Ref: patent US20070238700A1
